Assay: recombinant barcode read abundance after kanamycin selection (control-corrected) (log10(CPM+1)); higher = more efficient recombination; sequences stand for … in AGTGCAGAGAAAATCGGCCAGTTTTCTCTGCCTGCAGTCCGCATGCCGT…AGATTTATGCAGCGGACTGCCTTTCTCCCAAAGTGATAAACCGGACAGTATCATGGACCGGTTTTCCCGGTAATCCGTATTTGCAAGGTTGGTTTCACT; site = the 11-nt target;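 also: IS621 recombinase and bridge RNA in Escherichia coli cells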
Binary classification by recombinant barcode read abundance (log10), with 0.3 as an inclusive lower bound for true (1); all other cases are false (0).

| Residue sequence | Discrete label |
| --- | --- |
| AGTGCGTCTTGGGTTCTAACCTGTTGCCT (site CGTGCGTCTAG) | false (0) |

Kindly determine if recombinant barcode read abundance (log10) recorded for GTGAGTCCTTGGGTTCTAACCTGTTGCGT (site GTTGGTCCTAC) is above or exactly 0.3. false (0)

Kindly determine if recombinant barcode read abundance (log10) recorded for CGAGATTCTTGGGTTCTAACCTGTTGCCT (site CTAGATTCTAG) is above or exactly 0.3. true (1)

Kindly determine if recombinant barcode read abundance (log10) recorded for TATGGGACTTGGGTTCTAACCTGTTGCCT (site TATCGCACTAG) is above or exactly 0.3. false (0)

Where do the numbers come from? From the supplement of paper PMC11208160.
